assay: plasma pharmacokinetics (HPLC-MS/MS, population PK model); settings: human, intravenous, 70 mg/m^2
endpoint-name: concentration at 2 h (ng/mL)
Enter your answer as a number in ng/mL; do not include the unit.

# lookup: concentration at 2 h of CCc1cnn2c(NCc3ccc[n+]([O-])c3)cc(N3CCCC[C@H]3CCO)nc12 1700

---

assay: plasma pharmacokinetics (HPLC-MS/MS, population PK model); conditions: human, intravenous, 40 mg/m^2
endpoint-name: concentration at 6 h (ng/mL)
Enter your answer as a number in ng/mL; do not include the unit.

# lookup: concentration at 6 h of CCc1cnn2c(NCc3ccc[n+]([O-])c3)cc(N3CCCC[C@H]3CCO)nc12 [Dinaciclib] 42.4
